# System: poliovirus (PV type 3)
# Measurement protocol: microbe, parasite or virus in culture
# Assay type: cell-based
# Conditions: Enterovirus C, Vero, read-out: PV-3 EC50
Readout kind: EC50

> print(dat)
                                   molecule  assay.result
1  Nc1nc(N2CCN(C(=O)COc3ccc(Cl)cc3)CC2)c2cc(-c3ccc(F)cc3)sc2n1 [Example 326]    0.17 µg/mL
2  NC(=O)c1nc(N2CCN(C(=O)COc3ccc(Cl)cc3)CC2)c2cc(-c3ccc(F)cc3)sc2n1 [Example 355]    > 50 µg/mL
3  CCOC(=O)Cc1nc(N2CCN(C(=O)COc3ccc(Cl)cc3)CC2)c2cc(-c3ccc(F)cc3)sc2n1 [Example 354]    > 50 µg/mL
4  O=C(COc1ccc(Cl)cc1)N1CCN(c2ncnc3oc(-c4ccc(F)cc4)nc23)CC1 [Example 167]    > 50 µg/mL

---

# Measurement protocol: in vitro
# Conditions: African green monkey, PV CC50
Listed here are compounds together with their documented CC50.
Readout kind: CC50

> print(dat)
                                   compound  readout.kind  assay.result
1  Nc1nc(N2CCN(C(=O)COc3ccc(Cl)cc3)CC2)c2cc(-c3ccc(F)cc3)sc2n1 [Example 326]          CC50     102 µg/mL
2  Nc1nc(N2CCN(C(=O)COc3ccc(Cl)cc3)CC2)c2nc(CCc3ccc(F)cc3)sc2n1 [Example 49]          CC50     101 µg/mL
3  Nc1nc(N2CCN(C(=O)COc3ccc(Cl)cc3)CC2)c2nc(C3CC3)oc2n1 [Example 185]          CC50    97.7 µg/mL

---

# Test system: hRV-29
# Measurement protocol: Rhinovirus type 29 antiviral assay in Hela Rh cells, MTS readout
# Type: cell-based
# Conditions: Human rhinovirus sp., HRV29, HeLa Rh, Hela Rh cells; read-out: hRV-29 EC50
EC50 overview
Readout kind: EC50

> print(dat)
                                   compound  measured.on  assay.result
1  Nc1nc(N2CCN(C(=O)COc3ccc(Cl)cc3)CC2)c2nc(CCCCc3ccc(F)cc3)sc2n1 [Example 292]       hRV-29    > 50 µg/mL
2  COc1ccc(OCC(=O)N2CCN(c3nc(N)nc4sc(-c5ccc(C)cc5)nc34)CC2)cc1 [Example 294]       hRV-29  < 0.02 µg/mL
3  Nc1nc(N2CCN(C(=O)COc3ccc(Cl)cc3)CC2)c2nc(CCCc3ccc(F)cc3)sc2n1 [Example 290]       hRV-29    > 50 µg/mL

---

# Measurement protocol: in vitro
# Conditions: African green monkey, PV CC50
Quick reference for CC50 among some molecules
Readout kind: CC50 (µg/mL)

> print(dat)
                                   molecule  inequality.symbol  assay.result
1  O=C(COc1ccc(Cl)cc1)N1CCN(c2nc(-c3ccccc3)nc3sc(-c4ccc(F)cc4)cc23)CC1 [Example 352]                  >           150
2  Nc1nc(N2CCN(C(=O)COc3ccc(Cl)cc3)CC2)c2nc(-c3ccc(F)cc3)[nH]c2n1 [Example 389]                  >           150
3  CCOC(=O)Cc1nc(N2CCN(C(=O)COc3ccc(Cl)cc3)CC2)c2cc(-c3ccc(F)cc3)sc2n1 [Example 354]                  =           129
4  Nc1nc(N2CCN(C(=O)COc3ccc(Cl)cc3)CC2)c2nc(C3CCCCC3)oc2n1 [Example 187]                  =           118
5  COCc1nc2c(N3CCN(C(=O)COc4ccc(Cl)cc4)CC3)nc(N)nc2o1 [Example 186]                  =          95.2
6  Nc1nc(N2CCN(C(=O)COc3ccc(Cl)cc3)CC2)c2nc(-c3ccc(F)cc3)sc2n1 [Example 45]                  >           150
7  Cc1cccc(NC(=O)N2CCN(c3nc(-c4ccccc4)nc4sc(-c5ccc(F)cc5)cc34)CC2)c1 [Example 360]                  =          93.4
8  Cc1cccc(NC(=O)N2CCN(c3nc(C(N)=O)nc4sc(-c5ccc(F)cc5)cc34)CC2)c1 [Example 362]                  =           128
9  CCOC(=O)c1nc(N2CCN(C(=O)COc3ccc(Cl)cc3)CC2)c2cc(-c3ccc(F)cc3)sc2n1 [Example 353]                  >           150
